TESTED TARGET: Phosphatidylinositol 4,5-bisphosphate 3-kinase catalytic subunit delta isoform (Homo sapiens)
Sequence (O00329 whole entry): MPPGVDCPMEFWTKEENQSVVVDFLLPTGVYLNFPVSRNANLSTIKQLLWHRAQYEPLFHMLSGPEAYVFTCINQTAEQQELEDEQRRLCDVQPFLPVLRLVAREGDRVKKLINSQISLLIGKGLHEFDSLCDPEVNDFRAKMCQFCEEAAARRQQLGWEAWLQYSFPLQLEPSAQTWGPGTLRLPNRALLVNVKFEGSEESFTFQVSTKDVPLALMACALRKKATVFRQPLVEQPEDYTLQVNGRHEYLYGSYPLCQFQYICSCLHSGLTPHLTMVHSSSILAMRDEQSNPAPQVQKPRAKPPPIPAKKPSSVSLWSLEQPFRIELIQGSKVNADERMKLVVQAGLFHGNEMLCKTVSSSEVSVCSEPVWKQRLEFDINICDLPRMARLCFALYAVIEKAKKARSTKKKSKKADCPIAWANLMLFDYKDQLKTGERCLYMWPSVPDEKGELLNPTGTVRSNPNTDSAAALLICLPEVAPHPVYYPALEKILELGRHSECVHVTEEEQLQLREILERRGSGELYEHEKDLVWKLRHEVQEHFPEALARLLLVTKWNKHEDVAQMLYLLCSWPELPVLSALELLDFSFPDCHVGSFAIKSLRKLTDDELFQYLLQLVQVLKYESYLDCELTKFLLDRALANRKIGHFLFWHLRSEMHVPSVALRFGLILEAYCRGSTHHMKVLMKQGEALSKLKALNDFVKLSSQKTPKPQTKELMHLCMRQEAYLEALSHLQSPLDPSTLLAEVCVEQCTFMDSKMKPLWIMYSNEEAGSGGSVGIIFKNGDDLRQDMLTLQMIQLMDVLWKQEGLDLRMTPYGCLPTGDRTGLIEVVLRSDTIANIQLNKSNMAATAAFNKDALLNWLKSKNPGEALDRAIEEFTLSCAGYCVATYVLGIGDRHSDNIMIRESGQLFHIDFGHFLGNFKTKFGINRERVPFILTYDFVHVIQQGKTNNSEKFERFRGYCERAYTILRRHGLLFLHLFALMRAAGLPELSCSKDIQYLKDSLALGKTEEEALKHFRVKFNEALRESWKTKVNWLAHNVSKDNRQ
METHOD DESCRIPTION: PI3Kdelta Scintillation Proximity Assay
pIC50: −log10 of the molar value.
PROPERTY: pIC50

# compound C#Cc1ccccc1N1CCN(c2nc(-c3cc(C(O)(C(N)=O)C(F)(F)F)ccc3C)cnc2N)CC1 (stereo unspecified) ; its pIC50 = > 7.00

----------
TESTED TARGET: Phosphatidylinositol 4,5-bisphosphate 3-kinase catalytic subunit gamma isoform (Homo sapiens)
Sequence (P48736 whole entry, canonical isoform): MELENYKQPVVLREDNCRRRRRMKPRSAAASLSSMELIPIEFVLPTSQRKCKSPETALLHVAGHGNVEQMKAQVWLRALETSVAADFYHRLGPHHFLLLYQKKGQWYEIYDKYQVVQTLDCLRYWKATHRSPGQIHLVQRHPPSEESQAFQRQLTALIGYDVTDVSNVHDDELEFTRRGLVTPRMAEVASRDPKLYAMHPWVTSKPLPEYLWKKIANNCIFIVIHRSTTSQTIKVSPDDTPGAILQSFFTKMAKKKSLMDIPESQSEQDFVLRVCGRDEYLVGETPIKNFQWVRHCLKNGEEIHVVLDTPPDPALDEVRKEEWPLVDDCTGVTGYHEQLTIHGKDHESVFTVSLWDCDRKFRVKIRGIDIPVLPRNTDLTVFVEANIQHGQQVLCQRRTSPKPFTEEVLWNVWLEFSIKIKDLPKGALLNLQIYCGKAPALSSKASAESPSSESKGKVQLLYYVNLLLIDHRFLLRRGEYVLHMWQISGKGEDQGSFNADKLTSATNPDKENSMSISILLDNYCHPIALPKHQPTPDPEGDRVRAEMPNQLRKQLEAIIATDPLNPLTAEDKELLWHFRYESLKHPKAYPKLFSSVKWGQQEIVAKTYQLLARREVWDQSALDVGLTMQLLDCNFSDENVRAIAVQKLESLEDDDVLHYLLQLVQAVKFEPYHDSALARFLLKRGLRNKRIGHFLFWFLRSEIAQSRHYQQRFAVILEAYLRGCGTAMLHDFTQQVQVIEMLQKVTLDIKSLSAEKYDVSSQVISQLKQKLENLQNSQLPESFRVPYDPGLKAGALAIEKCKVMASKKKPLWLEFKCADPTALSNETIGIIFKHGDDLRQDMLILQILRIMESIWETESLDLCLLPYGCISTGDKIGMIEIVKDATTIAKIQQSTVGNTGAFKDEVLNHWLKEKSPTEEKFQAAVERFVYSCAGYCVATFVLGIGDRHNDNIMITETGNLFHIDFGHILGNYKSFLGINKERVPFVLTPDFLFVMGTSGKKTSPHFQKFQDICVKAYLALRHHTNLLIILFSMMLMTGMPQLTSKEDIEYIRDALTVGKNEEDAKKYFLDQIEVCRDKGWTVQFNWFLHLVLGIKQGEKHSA
METHOD DESCRIPTION: PI3K-gamma Scintillation Proximity Assay
pIC50: −log10 of the molar value.
PROPERTY: pIC50

# molecule C#Cc1ccccc1N1CCN(c2nc(-c3cc(C(O)(C(N)=O)C(F)(F)F)ccc3C)cnc2N)CC1 (stereo unspecified) ; its pIC50 = > 7.00
